- method_summary: Biodistribution studies in NMRI mice
- Assay type: in vivo
- test_settings: i.v., 60 min p.i.

molecule	unit_info	Percentage of ID, brain
NS(=O)(=O)c1ccc(OCC[18F])cc1 [[^18F]-(5)]	% ID	1.0
[11CH3]Oc1ccc(S(N)(=O)=O)cc1 [[^11C]-(6), 4-[^11C]methoxybenzene sulfonamide]	% ID	1.5
[11CH3]Oc1ccc(C(=O)NCCc2ccc(S(N)(=O)=O)cc2)cc1 [[^11C]-(4)]	% ID	0.3
NS(=O)(=O)c1ccc(CCNC(=O)c2ccc(OCC[18F])cc2)cc1 [[^18F]-(3)]	% ID	0.2
